test system: HCT-116 colon; experiment: NCI tumour cell line growth inhibition, 48 h
Label satisfied when TGI >= 30 µM; otherwise not satisfied.

hey, is TGI for this one >= 30 µM? COC(=O)CC1(O)C=CC(=O)C=C1 not satisfied

hey, is TGI for this one >= 30 µM? CN1CCN(Cc2ccc(NC(=O)c3[nH]ncc3Nc3ncnc4[nH]ccc34)cc2)CC1 not satisfied

hey, is TGI for this one >= 30 µM? c1ccc2c[n+](CCCC[n+]3ccc4ccccc4c3)ccc2c1 satisfied

hey, is TGI for this one >= 30 µM? C=C(Br)C[N+]12CN3CN(CN(C3)C1)C2 satisfied

hey, is TGI for this one >= 30 µM? O=C1NC(=O)C(=Cc2cn(Cc3ccccc3)c3ccccc23)C(=O)N1 not satisfied

hey, is TGI for this one >= 30 µM? O=C1C=CC2(O[C@H](C3CCCCC3)[C@@H](C3CCCCC3)O2)C(SC(=O)c2ccccc2)C1 (stereo not given in full) not satisfied

hey, is TGI for this one >= 30 µM? OCCCCC#Cc1ccccc1C#Cc1cccnc1 satisfied

hey, is TGI for this one >= 30 µM? CCCCNS(=O)(=O)c1ccc(-c2ccc3c(c2)-c2ccc(S(=O)(=O)NCCCC)cc2S3(=O)=O)cc1 satisfied

hey, is TGI for this one >= 30 µM? Cc1cc(Cl)cc2c1NC(=O)C2(O)CC(=O)c1ccc(Br)cc1 (stereo not given) satisfied

hey, is TGI for this one >= 30 µM? Cc1ccc(-n2nncc2[Si](C)(C)C)s1 satisfied

hey, is TGI for this one >= 30 µM? O=C(Nc1ccc(-n2cc(-c3ccncc3)c(-c3ccc(O)c(Cl)c3)n2)cc1)c1ccc(Cl)c(C(F)(F)F)c1 not satisfied

hey, is TGI for this one >= 30 µM? Cc1cc(C)nc(NS(=O)(=O)c2ccc(NNc3c4ccccc4nc4c(C(=O)Nc5ccc(S(=O)(=O)Nc6cc(C)on6)cc5)cccc34)cc2)n1 satisfied

hey, is TGI for this one >= 30 µM? O=c1cc(-c2ccccc2)oc2c1ccc1[nH]c3ccccc3c(=O)c12 satisfied

hey, is TGI for this one >= 30 µM? CC(C)C[C@H](NC(=O)Cn1cccc(CNC(=O)c2ccccc2)c1=O)B(O)O not satisfied

hey, is TGI for this one >= 30 µM? O=C1C(N2CCN(CCOCCO)CC2)=C(Cl)C(=O)c2ncccc21 satisfied

hey, is TGI for this one >= 30 µM? COc1cc(S(=O)(=O)Nc2ccc(-c3csc(N4C(=O)C(Cl)C4c4ccccc4O)n3)cc2)ccc1Cl (stereo not given) satisfied

hey, is TGI for this one >= 30 µM? Cc1cc(S(=O)(=O)Nc2nc3cscc3c(=O)n2N)c(S)cc1Cl satisfied

hey, is TGI for this one >= 30 µM? CCN1CCN(c2cc(C(=O)Nc3cccc(Nc4ccc5c(OC)cccc5n4)c3)cc(C(F)(F)F)c2)CC1 not satisfied

hey, is TGI for this one >= 30 µM? C=C(C)[C@@H]1CCc2c(O)c(O)c(=O)cc(C)c2C1 satisfied

hey, is TGI for this one >= 30 µM? CCOC(=O)C1CCC(=O)N1C(=O)c1cccc(Cl)c1 (stereo not given) satisfied

hey, is TGI for this one >= 30 µM? COC(=O)CCC(=O)NC1=C(Nc2ccccc2)C(=O)c2ccccc2C1=O not satisfied

hey, is TGI for this one >= 30 µM? O=C(O)COc1ccc(OCC(=O)O)cc1 not satisfied

hey, is TGI for this one >= 30 µM? CC(C)[P+](c1ccccc1)(c1ccccc1)c1ccccc1 satisfied

hey, is TGI for this one >= 30 µM? CC(=O)c1c[nH]c2ccc(-c3ccnc(Nc4ccc(NC(=O)C5CCCC5)c(CN5CCOCC5)c4)n3)cc12 not satisfied

hey, is TGI for this one >= 30 µM? O=c1cc(-c2ccccc2)[nH]c2c1CCCC2 satisfied

hey, is TGI for this one >= 30 µM? O=C1CC(c2cccc(Cl)c2)Oc2ccccc21 (stereo not given) satisfied

hey, is TGI for this one >= 30 µM? CCCC1=C(OC)C(=O)c2c(C)cc(Cl)nc2C1=O not satisfied

hey, is TGI for this one >= 30 µM? CC12OC(C(=O)C13CC3)C1C(=O)c3c(O)ccc(O)c3C(=O)C12 (stereo not given) not satisfied
